Data credit: patent US20240368668A1

# Target of assay: mouse ADAMTS7 (Mus musculus, UniProt Q68SA9, E373Q)
# Construct: Full-length mouse Adamts7 1-1857 (Uniprot Q68SA9, WT or E373Q catalytic mutant); expressed in transfected cells; host or cells: Human Coronary Artery Smooth Muscle Cells (HCA-SMC, Lonza), adenovirus 50 MOI
# Sequence (Q68SA9 221-1657 E373Q): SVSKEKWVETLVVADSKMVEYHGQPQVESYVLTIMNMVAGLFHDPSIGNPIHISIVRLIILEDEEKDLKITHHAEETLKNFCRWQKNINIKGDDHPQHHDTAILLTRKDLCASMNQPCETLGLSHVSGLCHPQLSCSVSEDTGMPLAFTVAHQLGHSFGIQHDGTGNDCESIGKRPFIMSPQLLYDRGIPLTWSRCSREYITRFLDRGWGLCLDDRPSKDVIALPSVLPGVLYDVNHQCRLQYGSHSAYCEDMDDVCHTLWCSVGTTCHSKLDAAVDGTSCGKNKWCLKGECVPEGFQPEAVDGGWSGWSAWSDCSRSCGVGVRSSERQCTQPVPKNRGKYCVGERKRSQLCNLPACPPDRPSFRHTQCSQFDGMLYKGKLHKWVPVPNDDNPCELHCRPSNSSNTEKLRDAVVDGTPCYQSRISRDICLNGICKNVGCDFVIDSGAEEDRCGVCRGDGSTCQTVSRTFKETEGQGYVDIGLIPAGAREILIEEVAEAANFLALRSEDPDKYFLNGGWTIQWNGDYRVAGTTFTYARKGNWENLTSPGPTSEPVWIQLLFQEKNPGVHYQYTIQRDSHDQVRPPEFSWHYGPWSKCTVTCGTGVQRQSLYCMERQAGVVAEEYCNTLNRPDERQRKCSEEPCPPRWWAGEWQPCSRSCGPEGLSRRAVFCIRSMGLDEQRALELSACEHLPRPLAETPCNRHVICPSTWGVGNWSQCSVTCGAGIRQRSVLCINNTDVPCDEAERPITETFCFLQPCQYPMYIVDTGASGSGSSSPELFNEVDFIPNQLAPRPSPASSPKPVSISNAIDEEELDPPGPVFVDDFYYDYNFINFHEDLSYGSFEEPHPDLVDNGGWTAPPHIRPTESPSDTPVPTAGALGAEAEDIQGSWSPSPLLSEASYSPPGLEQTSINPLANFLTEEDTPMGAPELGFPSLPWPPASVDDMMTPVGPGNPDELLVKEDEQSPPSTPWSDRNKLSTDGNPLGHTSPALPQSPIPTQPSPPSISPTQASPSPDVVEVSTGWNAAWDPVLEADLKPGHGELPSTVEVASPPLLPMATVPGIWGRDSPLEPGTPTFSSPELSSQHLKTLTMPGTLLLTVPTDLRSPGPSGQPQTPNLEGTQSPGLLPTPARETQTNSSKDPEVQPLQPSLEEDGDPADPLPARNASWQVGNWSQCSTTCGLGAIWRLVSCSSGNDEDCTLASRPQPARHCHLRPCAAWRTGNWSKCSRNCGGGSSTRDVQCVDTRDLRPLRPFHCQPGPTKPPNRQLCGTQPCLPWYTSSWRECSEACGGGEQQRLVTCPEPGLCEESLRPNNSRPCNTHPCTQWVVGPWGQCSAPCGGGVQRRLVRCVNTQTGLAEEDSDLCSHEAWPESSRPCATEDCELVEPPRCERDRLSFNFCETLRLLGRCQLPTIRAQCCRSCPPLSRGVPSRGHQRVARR
# Test: TMT10 TAILS N-terminomics, SMC2 experiment (process replicates, trypsin/AspN digest)
# Type: cell-based
# Test parameters: SMC2_TAILS HC; log fold change, mEQ over Luc
Result type: logFC.mEQ.over.Luc

Use the examples below as a reference point.
{"Substance": "FLNC_2649 (FVGQKNSFTV; listed as Homo sapiens)", "logFC.mEQ.over.Luc": "−0.06"}
{"Substance": "EFEMP1_124 (AVAGPEMQTGR; listed as Homo sapiens)", "logFC.mEQ.over.Luc": "−0.46"}
{"Substance": "HEG1_51 (GLELQLER; listed as Homo sapiens)", "logFC.mEQ.over.Luc": 0.25}

P: FBN1_53 (LKGPNVCGSR; listed as Homo sapiens)
Q: LASP1_182 (SYGGYKEPAAPVSIQR; listed as Homo sapiens)
Req: In the pair P and Q , the larger recorded logFC.mEQ.over.Luc belongs to which? Bench note: the answer is the label of the chosen record.
Resp: Q
